System: Saccharomyces cerevisiae
Experiment: protein stability index of tFT-peptide fusion (C-terminal peptide) (PSI (0-1 scale)); higher = more stable (slower turnover)
Conditions: genetic background: wild type; temperature: 30 C
ATTRIBUTE_MEASURED: protein stability index
Give your answer as a number; write no unit.

protein stability index recorded for this sequence, LSVMKLFVMVGP , is 0.401

protein stability index recorded for this sequence, GVIFRRFDVGLS , is 0.682

The reported value for ITGGEKNKEESG in terms of protein stability index is 0.698

The reported value for SPSFLVIFTMLL in terms of protein stability index is 0.468

Just so you know, measured protein stability index for RPLSDDTDCPCI came out at 0.748

Record TSFLHLFVAAII , field protein stability index: 0.513

Notebook: PFFCFLLFCFSL , protein stability index read as 0.455

###

System: Saccharomyces cerevisiae
Assay: protein stability index of tFT-peptide fusion (C-terminal peptide) (PSI (0-1 scale)); higher = more stable (slower turnover)
Conditions: genetic background: wild type; temperature: 30 C
Reported protein stability index values follow for various sequences
Number, no unit, nothing else.

Use these answered entries as a reference point.
Summary for this sequence, LVSCPPPPAPPP : protein stability index is 0.659

Entry RDLEAVRSEDHR ; protein stability index = 0.677

Continuing:
Measured protein stability index of GEGSQTGSLIPL : 0.71

Input PPWTNALMILLD . Output protein stability index: 0.689

Record summary for SPPPSSPPPFPR : reported protein stability index = 0.639

protein stability index in this record for ASNVHSSTARFI : 0.687

###

System: Saccharomyces cerevisiae
Test: protein stability index of tFT-peptide fusion (C-terminal peptide) (PSI (0-1 scale)); higher = more stable (slower turnover)
Settings: genetic background: wild type; temperature: 30 C
Class fulfilled: protein stability index at least 0.7. Class not fulfilled: protein stability index below 0.7.

// known answers, use as guide
**Q:** Threshold query (protein stability index >= 0.7) on SHPPPPPHTPPS
**A:** fulfilled

**Q:** protein stability index >= 0.7 for PLSVSLSLLTPR ?
**A:** fulfilled

**Q:** Can FLCLFFLAVIKL be said to have protein stability index at or above 0.7?
**A:** not fulfilled

**Q:** Say whether PSGVKILFELKP shows protein stability index of 0.7 or more.
**A:** not fulfilled

**Q:** Would you say VCTVSGFGVLGA shows protein stability index at minimum 0.7?
**A:** fulfilled

New cases:
**Q:** Can APLLQCPILARP be said to have protein stability index at or above 0.7?
**A:** not fulfilled

**Q:** Form field: protein stability index at least 0.7? Entry: FPSSSHLPWLLI
**A:** not fulfilled

###

Test system: Saccharomyces cerevisiae
Assay: protein stability index of tFT-peptide fusion (C-terminal peptide) (PSI (0-1 scale)); higher = more stable (slower turnover)
Settings: genetic background: wild type; temperature: 30 C
Reported protein stability index values for a set of sequences
Reply briefly: the number, and no unit.

The sequence listed as PGPPPPPPPLYP has a reported protein stability index of 0.695

Summary for this sequence, YTGVCEWRANVH : protein stability index is 0.689

Consider now this further sequence.
Reported protein stability index ( MKRMIKREIKIK ) = 0.679

###

protein stability index for assorted sequences
System: Saccharomyces cerevisiae;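 note: PSI is a weighted mean of sequencing reads over stability bins, variants kept only with over 10 reads, mCherry proximal and sfGFP distal, peptide attached via GGGS linker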
Experiment: protein stability index of tFT-peptide fusion (C-terminal peptide) (PSI (0-1 scale)); higher = more stable (slower turnover)
Settings: genetic background: wild type; temperature: 30 C

Some sequences with known protein stability index results, for comparison:
Field protein stability index (system: Saccharomyces cerevisiae) for entry AELSPGLSVLLL = 0.705

# AIKHMVSHSPGN with Saccharomyces cerevisiae: protein stability index is 0.683

Simply: DRPPPPPRSSPL , Saccharomyces cerevisiae, protein stability index = 0.753

Record VLFCFAHSASFL / Saccharomyces cerevisiae, protein stability index recorded as 0.536

Fill in: Saccharomyces cerevisiae protein stability index for LGLSTLLVPHTR = 0.743

---
Param item: LEHPAHPTKLQL ; param system: Saccharomyces cerevisiae; output protein stability index: 0.707

Bench note, Saccharomyces cerevisiae: VESGVREEKCMS , protein stability index reads 0.708

The recorded protein stability index with Saccharomyces cerevisiae for GPFGCLRSLIRG was 0.642

# protein stability index measured on Saccharomyces cerevisiae for item VGLGGGVRLGRL = 0.786

Log: Saccharomyces cerevisiae, sequence FFSFVVPCFFFC , protein stability index = 0.513

Item KEKKLKIIQKGT was tested on Saccharomyces cerevisiae; the reported protein stability index is 0.578

YFTNSVPVGTVA tested on Saccharomyces cerevisiae gave protein stability index: 0.501

protein stability index on Saccharomyces cerevisiae for AGANPRVGTFWV is 0.664

Short answer on Saccharomyces cerevisiae for LFSVLVFIYFVM , protein stability index: 0.127
